- tested.target: Aldehyde dehydrogenase 1A1 (Homo sapiens) (UniProt P00352)
- Sequence (P00352 whole entry): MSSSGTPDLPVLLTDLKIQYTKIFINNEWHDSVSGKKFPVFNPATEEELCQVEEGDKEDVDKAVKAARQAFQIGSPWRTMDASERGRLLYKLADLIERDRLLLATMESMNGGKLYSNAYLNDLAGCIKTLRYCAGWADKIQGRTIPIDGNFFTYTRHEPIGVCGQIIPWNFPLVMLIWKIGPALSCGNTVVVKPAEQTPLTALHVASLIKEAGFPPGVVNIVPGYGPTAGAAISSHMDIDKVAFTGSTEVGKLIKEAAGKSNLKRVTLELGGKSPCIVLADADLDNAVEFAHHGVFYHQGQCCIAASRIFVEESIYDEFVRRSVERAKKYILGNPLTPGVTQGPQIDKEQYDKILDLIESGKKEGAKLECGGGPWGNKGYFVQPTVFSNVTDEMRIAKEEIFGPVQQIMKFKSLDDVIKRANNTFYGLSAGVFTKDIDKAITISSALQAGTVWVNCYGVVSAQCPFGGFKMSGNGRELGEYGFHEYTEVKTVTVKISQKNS
- test.summary: Inhibition of ALDH1 in human K562 cells at 15 uM after 45 mins by flow cytometry based method relative to bodipy-aminoacetaldehyde
- Type: cell-based
So basically: inhibition at 10% or higher? That is class 1. Lower than 10%? That is class 0.

molecule	class.label
Cc1cc(C)n2c1C=C1C=CC(CCC(=O)NCC=O)=[N+]1[B-]2(F)F	class 0
S=C(SSC(=S)N1CCCCC1)N1CCCCC1 [BIS(PIPERIDINYLTHIOCARBONYL)DISULFIDE]	class 1
CCN(CC)C(=S)SSCCO	class 0
S=C(SSC(=S)N1CCCC1)N1CCCC1 [BIS(PYRROLIDINYLTHIOCARBONYL)DISULFIDE]	class 0
CCN(CC)C(=S)SSC(=S)N(CC)CC	class 1

Values from ChEMBL document CHEMBL1157084
